attributeMeasured: melting point

molecule="OCC1CCCn2c(cc3ccccc32)C1 (configuration not stated)" readoutvalue="109 to 111 °C"
molecule=CCCCOc1ccc(NC(=O)c2cnc(C(=O)NCC(=O)OCC)c(Cl)c2)cc1 readoutvalue="177 to 179 °C"
molecule="COc1ccc(-c2noc(C3CCCN(C(=O)c4ccccc4)C3)n2)cc1 (configuration not stated)" readoutvalue="121 °C"
molecule=Fc1cccc(F)c1C1=N[C@@H](c2ccc(-c3ccc(S)cc3)cc2)CO1 readoutvalue="133 to 135 °C"
molecule="CC1(C)Oc2ccc(C#N)cc2[C@H](N)[C@@H]1O (relative stereo)" readoutvalue="85 to 86 °C"
molecule=COC(=O)/C=C\C(=O)Nc1ccc2c(=O)n3c(nc2c1)C(=Cc1ccccc1)CC3 readoutvalue="233 to 235 °C"
molecule=Cc1c(Br)c2c(c(C)c1NC(=O)OC(C)(C)C)C(=O)C(C)(C)O2 readoutvalue="131 to 132 °C"
molecule="O=P(O)(O)C(O)(CC1(c2ccc(Cl)cc2)C=CN(c2ccccc2)N1)P(=O)(O)O (configuration not stated)" readoutvalue="199 °C"
molecule=CC(C)n1nc(-c2sc(NC(=O)c3ccc(CN4CCOCC4)cc3)nc2-c2ccccc2)ccc1=O readoutvalue="222 to 224 °C"
molecule="CC[C@H](C)C(OCc1ccccc1)[C@@H]1[C@H]([N+](=O)[O-])[C@H](c2ccccc2)N[C@]1(C)C(=O)NCCC(=O)O (some centres not stated)" readoutvalue="104 to 105 °C"
molecule=CC(=O)OCc1cc2c(Cl)ccc(-n3c(=O)cc(C(F)(F)F)n(C)c3=O)c2o1 readoutvalue="135 to 138 °C"
molecule="CCCCCCCCCCCCn1nnc(C(C(=O)Nc2cc(C)c(O)c(C)c2C)c2ccccc2)n1 (single isomer, unassigned; (+))" readoutvalue="105 °C"
molecule=Oc1ccc(C2(c3ccc(O)cc3)CCCCC2)cc1 readoutvalue="181 to 182 °C"
molecule=CCCCOc1c(CO)n(CC(C)C)c(=O)c2ccc(OCc3ccccc3)cc12 readoutvalue="90 to 91 °C"
molecule=C=CCCOc1ccc2c(c1)C(=O)c1cc3ccccc3cc1C2=O readoutvalue="149 °C"
molecule=Cc1ccc(C(=O)c2ccccc2F)cc1 readoutvalue="73 to 74 °C"
molecule=COc1cc2c(=O)n(CCCO)c3c4ccccc4[nH]c(=O)c3c2cc1OC readoutvalue="313 °C"

* * *

melting point: recorded values
attributeMeasured: melting point (°C)

moleculesmiles=COc1ccc(C(=O)O)cc1C1(C)CCCCC1 attributemeasured="melting point" readoutvalue=199
moleculesmiles=NC(=O)Cc1cn(-c2ccccc2)nc1-c1ccc(Cl)cc1 attributemeasured="melting point" readoutvalue=182
moleculesmiles=O=C(NC(=NCCCOc1ccccc1)Oc1ccccc1)c1ccccc1 attributemeasured="melting point" readoutvalue=75

* * *

melting point: recorded values
attributeMeasured: melting point

compound=CCCCC=CC(=O)Nc1ccccc1 attributemeasured="melting point" readoutvalue="50 °C"
compound=CC(C)(C)c1cc(-c2ccc(NC(=O)CCCC(=O)O)cc2)cc(C(C)(C)C)c1O attributemeasured="melting point" readoutvalue="218 to 219 °C"
compound="COc1ccc(S(N)(=O)=O)cc1C(=O)C(C)Br (stereo not given)" attributemeasured="melting point" readoutvalue="108 to 110 °C"
compound=COc1ccc(-c2cc(Nn3cnnc3)ccc2C#N)cc1 attributemeasured="melting point" readoutvalue="176 to 177 °C"
compound=COc1cc(COc2cc(CO)n(-c3ccccc3)n2)ccc1OCc1nc(-c2ccccc2)oc1C attributemeasured="melting point" readoutvalue="146 to 147 °C"
compound=CC(C)(C)c1cc(I)c2c(c1)CNS(=O)(=O)O2 attributemeasured="melting point" readoutvalue="154 to 155 °C"
compound=COc1cc(Cl)nc(S(C)(=O)=O)n1 attributemeasured="melting point" readoutvalue="68 to 74 °C"
compound="CC(Oc1ncn(-c2cccc(Cl)c2)n1)C(=O)N(C)C (stereo not given)" attributemeasured="melting point" readoutvalue="136 to 139 °C"
compound=CCOC(=O)c1c(Cn2cnnc2)nc2sc(C)c(C)c2c1-c1ccc(OC)c(OC)c1 attributemeasured="melting point" readoutvalue="187 to 188 °C"
compound="O=C1N=C(N2CCOCC2)SC1c1cncc(-c2cc(F)c(O)c(C34CC5CC(CC(C5)C3)C4)c2)c1 (stereo not given)" attributemeasured="melting point" readoutvalue="310 to 317 °C"

Where do the numbers come from? From a melting point compilation (Tetko et al.; mined from patent text by program, amines drawn as free bases though some values may be those of a salt).
